test system: HaCat; test: Cytotoxic Profiling of Annotated Libraries Using Quantitative High-Throughput Screening (AID 1296008); conditions: Five cell lines viability, CellTiter-Glo ATP luminescence, 48-72 h; stronger effect = lower value; note: nearly all actives have a fitted effect of over 60% in size; for max response: % is set by controls: 0 for no effect and ±100 for the full control effect
Records with an inconclusive call do not appear.
Measured max response accompanies every entry in the list below.
ENDPOINT_LABEL: max response (%)

>  <MOLECULE>
C=C[C@H]1C(O[C@@H]2O[C@H](CO)[C@@H](O)[C@H](O)[C@H]2O)OC=C2C(=O)N3CCc4c([nH]c5ccccc45)[C@H]3C[C@H]21 (stereo not given in full)

>  <REPORTED_VALUE>
2.83

$$$$
>  <MOLECULE>
O=C(OC[C@@]1(O)CO[C@@H](O[C@H]2[C@H](Oc3ccc(O)cc3)O[C@H](CO)[C@@H](O)[C@@H]2O)[C@@H]1O)c1ccc(O)cc1

>  <REPORTED_VALUE>
-0.439

$$$$
>  <MOLECULE>
C[C@@H]1O[C@@H](O[C@H]2[C@H](O)[C@@H](O[C@@H]3O[C@H](CO)[C@@H](O)[C@H](O[C@@H]4O[C@H](CO)[C@@H](O)[C@H](O)[C@H]4O)[C@H]3O)[C@H](O[C@H]3CC[C@@]4(C)C(=CC[C@@H]5C4CC[C@@]4(C)C5C[C@@H]5OC6(CC[C@@](C)(CO[C@@H]7O[C@H](CO)[C@@H](O)[C@H](O)[C@H]7O)O6)[C@@H](C)[C@@H]54)C3)O[C@@H]2CO)[C@H](O)[C@H](O)[C@H]1O (stereo not given in full)

>  <REPORTED_VALUE>
-19

$$$$
>  <MOLECULE>
C[C@@H]1O[C@@H](OC[C@H]2O[C@@H](OC(CCCCc3ccc(O)cc3)CCc3ccc(O)cc3)[C@H](O)[C@@H](O)[C@@H]2O)[C@H](O)[C@H](O)[C@H]1O (stereo not given in full)

>  <REPORTED_VALUE>
-5.01

$$$$
>  <MOLECULE>
COc1ccc(-c2cnc(-c3cccc4c3-c3ccccc3C4=O)o2)cc1

>  <REPORTED_VALUE>
-2.01

$$$$

* * *

test system: NIH3T3; assay: Cytotoxic Profiling of Annotated Libraries Using Quantitative High-Throughput Screening (AID 1296008); conditions: Five cell lines viability, CellTiter-Glo ATP luminescence, 48-72 h; note: nearly all actives have a fitted effect of over 60% in size
Results filed as inconclusive are left out. Calls of active or inactive are those of the source. Calls follow the shape of the dose curve; as a rule, active = well fitted inhibition curve with a large enough effect; inconclusive = small, poorly fitted or top-dose-only effect; inactive = flat fitted curve, though single readings scatter.
Outcomes: active, inactive

>  <COMPOUND>
CC1(C)CCC[C@@]2(C)C1[C@H](OC(=O)/C=C/C=C/C(=O)O)C=C1COC(=O)[C@@]12O (stereo not given in full)

>  <ASSIGNED_LABEL>
inactive

$$$$
>  <COMPOUND>
CCOc1cc(N2CCC(O)CC2)ccc1Nc1ncc2c(n1)N(C1CCCC1)CCC(=O)N2C

>  <ASSIGNED_LABEL>
active

$$$$
>  <COMPOUND>
CCCCc1nc2cc(/C=C/C(=O)NO)ccc2n1CCN(CC)CC

>  <ASSIGNED_LABEL>
active

$$$$
>  <COMPOUND>
CC(=O)O[C@H]1CC(C)(C)CC2[C@@]13[C@H](O)C[C@]1(C)[C@@]2(CCC2[C@@]4(C)CC[C@H](O[C@@H]5OC[C@H](O[C@@H]6O[C@H](CO)[C@@H](O)[C@H](O)[C@H]6O[C@@H]6OC[C@@H](O)[C@H](O)[C@H]6O)[C@H](O)[C@H]5O[C@@H]5O[C@H](CO)[C@@H](O)[C@H](O)[C@H]5O)C(C)(C)C4CC[C@]21C)O[C@@H]3O (stereo not given in full)

>  <ASSIGNED_LABEL>
active

$$$$
>  <COMPOUND>
NC1(C(=O)NC(CCO)c2ccc(Cl)cc2)CCN(c2ncnc3[nH]ccc23)CC1 (stereo not given)

>  <ASSIGNED_LABEL>
inactive

$$$$
>  <COMPOUND>
COc1cc(C(=O)NC2CCN(C)CC2)ccc1Nc1ncc2c(n1)N(C1CCCC1)CC(F)(F)C(=O)N2C

>  <ASSIGNED_LABEL>
active

$$$$
>  <COMPOUND>
O=C(/C=C/c1ccccc1)OC[C@]12O[C@H]1[C@@H](O)[C@@H]1C=CO[C@@H](O[C@@H]3O[C@H](CO)[C@@H](O)[C@H](O)[C@H]3O)[C@@H]12

>  <ASSIGNED_LABEL>
inactive

$$$$
>  <COMPOUND>
O=C(/C=C/c1cccc(S(=O)(=O)Nc2ccccc2)c1)NO

>  <ASSIGNED_LABEL>
active

$$$$
>  <COMPOUND>
CC1OC(OC2C(C)OC(OC3C(O)C(CO)OC(O[C@H]4CC[C@@]5(C)C(CC[C@]6(C)C5CC=C5C7[C@@H](C)[C@H](C)CC[C@]7(C(=O)O)CC[C@]56C(=O)O)C4(C)C)C3O)C(O)C2O)C(O)C(O)C1O (stereo not given in full)

>  <ASSIGNED_LABEL>
inactive

$$$$
>  <COMPOUND>
CCCCNc1ncc2c(-c3ccc(CN4CCN(C)CC4)cc3)cn(C3CCC(O)CC3)c2n1 (stereo not given)

>  <ASSIGNED_LABEL>
active

$$$$
>  <COMPOUND>
C=C(C(=O)O)C1CCC2(C)CCCC(C)(O)C2C1 (stereo not given)

>  <ASSIGNED_LABEL>
inactive

$$$$
>  <COMPOUND>
O=[N+]([O-])c1cccc2[nH]c(CNc3nc(N4CCOCC4)nc4c3ncn4-c3ccsc3)nc12

>  <ASSIGNED_LABEL>
active

$$$$
>  <COMPOUND>
NC(=O)[C@H]1CCS[C@@H]2C[C@]3(CCCN3C(=O)Cc3ccc(NC(=O)COc4ccc(Cl)cc4Cl)cc3)C(=O)N12

>  <ASSIGNED_LABEL>
active

$$$$
>  <COMPOUND>
CC(Nc1ncnc2nc[nH]c12)c1cc2cccc(Cl)c2c(=O)n1-c1ccccc1 (stereo not given)

>  <ASSIGNED_LABEL>
active

$$$$
>  <COMPOUND>
Cc1cc(-c2cc(O)ccc2Cl)cc2nnc(Nc3ccc(OCCN4CCCC4)cc3)nc12

>  <ASSIGNED_LABEL>
active

$$$$

* * *

Parameter max response: see the listing below.
test system: CRL-7250; assay: Cytotoxic Profiling of Annotated Libraries Using Quantitative High-Throughput Screening (AID 1296008); details: Five cell lines viability, CellTiter-Glo ATP luminescence, 48-72 h; stronger effect = lower value; note: nearly all actives have a fitted effect of over 60% in size; for max response: % is set by controls: 0 for no effect and ±100 for the full control effect
Results filed as inconclusive are left out.
ENDPOINT_LABEL: max response (%)

>  <COMPOUND>
CC(=O)OC1C[C@@]2(C)[C@@H](CC[C@@H](C)[C@]23Cc2c(O)cc4c(c2O3)CNC4=O)C(C)(C)[C@@H]1O (some centres undefined)

>  <TARGET_ENTITY>
CRL-7250

>  <UNIT_LABEL>
%

>  <REPORTED_VALUE>
2.93

$$$$
>  <COMPOUND>
CC1OC2OC(=O)C3(C)CC4=C(CO)C5=C(CC(=O)C4(C)C(C1=O)C23)C(C)(C)OC(=O)C5 (centres undefined)

>  <TARGET_ENTITY>
CRL-7250

>  <UNIT_LABEL>
%

>  <REPORTED_VALUE>
-28.4

$$$$
>  <COMPOUND>
Cc1ccc(NC(=O)c2ccc(CN3CC[C@H](N(C)C)C3)c(C(F)(F)F)c2)cc1Nc1nccc(-c2cncnc2)n1

>  <TARGET_ENTITY>
CRL-7250

>  <UNIT_LABEL>
%

>  <REPORTED_VALUE>
-22.1

$$$$
>  <COMPOUND>
CC(C)=CCC[C@](C)(O)[C@H]1CC[C@]2(C)[C@@H]1[C@H](O)CC1[C@@]3(C)CC[C@H](O)C(C)(C)C3[C@@H](O[C@@H]3O[C@H](CO)[C@@H](O)[C@H](O)[C@H]3O[C@@H]3OC[C@@H](O)[C@H](O)[C@H]3O)C[C@]12C (some centres undefined)

>  <TARGET_ENTITY>
CRL-7250

>  <UNIT_LABEL>
%

>  <REPORTED_VALUE>
-0.925

$$$$
>  <COMPOUND>
C=C1[C@@H]2CC[C@@H]3[C@@](CCC4C(C(=O)O)(C(=O)O)C[C@@H](O[C@@H]5O[C@H](CO)[C@@H](O)[C@H](O)[C@H]5OC(=O)CC(C)C)C[C@]43C)(C2)[C@H]1O (some centres undefined)

>  <TARGET_ENTITY>
CRL-7250

>  <UNIT_LABEL>
%

>  <REPORTED_VALUE>
-6.97

$$$$
>  <COMPOUND>
CCOc1ccc2nc(SCCN3CCOCC3)[nH]c2c1

>  <TARGET_ENTITY>
CRL-7250

>  <UNIT_LABEL>
%

>  <REPORTED_VALUE>
-3.31

$$$$
>  <COMPOUND>
Cc1cc(Cl)ccc1COc1ccnn1-c1cc(C(=O)O)ccn1

>  <TARGET_ENTITY>
CRL-7250

>  <UNIT_LABEL>
%

>  <REPORTED_VALUE>
0.791

$$$$
>  <COMPOUND>
COc1ccc(C2COc3cc(O)ccc3C2)c(O)c1 (centres undefined)

>  <TARGET_ENTITY>
CRL-7250

>  <UNIT_LABEL>
%

>  <REPORTED_VALUE>
-2.17

$$$$
>  <COMPOUND>
CC(=O)NC1=NN(C(C)=O)C(C)(c2ccccc2)S1 (centres undefined)

>  <TARGET_ENTITY>
CRL-7250

>  <UNIT_LABEL>
%

>  <REPORTED_VALUE>
-15.8

$$$$
